Numbers sourced from the RNAGym collection of RNA variant scans (doi:10.7554/elife.80360).

Parameter: self-cleavage. Scope: all listed entries.
B1: Twister Ribozyme (parent)
chain: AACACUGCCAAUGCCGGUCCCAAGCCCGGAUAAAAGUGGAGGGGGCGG

- Variants of: B1
- assayComment: self-cleavage, relative activity (ratio to wild type); higher = more cleavage; co-transcriptional

1) C3U A10C | 0.61
2) U6A G28A | 0.616

For the variant C25G G44U , give its reported self-cleavage. 0.197
